# ASSAYED SYSTEM: T1, human G-CSF receptor (human, UniProt Q99062 25-836)
# T1 sequence (looked up): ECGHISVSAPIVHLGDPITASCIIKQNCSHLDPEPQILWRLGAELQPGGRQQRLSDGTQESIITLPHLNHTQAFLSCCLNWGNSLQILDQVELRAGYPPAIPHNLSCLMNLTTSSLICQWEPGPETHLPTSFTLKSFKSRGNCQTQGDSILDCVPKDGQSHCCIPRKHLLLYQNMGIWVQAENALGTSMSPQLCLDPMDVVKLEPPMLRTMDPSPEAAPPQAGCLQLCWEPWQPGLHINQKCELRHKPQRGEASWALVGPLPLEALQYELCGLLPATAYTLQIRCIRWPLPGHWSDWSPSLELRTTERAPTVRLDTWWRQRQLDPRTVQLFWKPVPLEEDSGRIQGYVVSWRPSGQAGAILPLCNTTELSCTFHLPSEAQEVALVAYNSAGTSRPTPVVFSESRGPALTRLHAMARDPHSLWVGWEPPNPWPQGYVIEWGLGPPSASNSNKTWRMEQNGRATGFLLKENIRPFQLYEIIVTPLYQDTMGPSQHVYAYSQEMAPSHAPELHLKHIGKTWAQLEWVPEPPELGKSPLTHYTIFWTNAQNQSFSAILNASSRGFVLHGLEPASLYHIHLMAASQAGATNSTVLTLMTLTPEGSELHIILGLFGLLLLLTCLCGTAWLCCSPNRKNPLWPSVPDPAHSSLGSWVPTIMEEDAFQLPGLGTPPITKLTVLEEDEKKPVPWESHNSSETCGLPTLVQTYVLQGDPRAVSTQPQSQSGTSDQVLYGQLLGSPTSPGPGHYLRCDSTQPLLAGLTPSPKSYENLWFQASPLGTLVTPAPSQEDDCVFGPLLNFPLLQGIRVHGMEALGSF
# MEASUREMENT PROTOCOL: cell-based or functional assay
VALUE KIND: EC50 (% of hG-CSF) conjugated to SPA-PEG 5000

In the examples that follow, each entry is paired with its recorded EC50 (% of hG-CSF) conjugated to SPA-PEG 5000.
[
  {
    "BINDER": "G-CSF variant K16/34/40R Q134K conjugated to SPA-PEG 5000 (ligand, SPA-PEG 5000 conjugated to the available PEGylation sites) TPLGPASSLPQSFLLRCLEQVRKIQGDGAALQERLCATYRLCHPEELVLLGHSLGIPWAPLSSCPSQALQLAGCLSQLHSGLFLYQGLLQALEGISPELGPTLDTLQLDVADFATTIWQQMEELGMAPALQPTKGAMPAFASAFQRRAGGVLVASHLQSFLEVSYRVLRHLAQP",
    "RESULT": "0.2 % of hG-CSF"
  },
  {
    "BINDER": "G-CSF variant K16/34/40R Q67K conjugated to SPA-PEG 5000 (ligand, SPA-PEG 5000 conjugated to the available PEGylation sites) TPLGPASSLPQSFLLRCLEQVRKIQGDGAALQERLCATYRLCHPEELVLLGHSLGIPWAPLSSCPSKALQLAGCLSQLHSGLFLYQGLLQALEGISPELGPTLDTLQLDVADFATTIWQQMEELGMAPALQPTQGAMPAFASAFQRRAGGVLVASHLQSFLEVSYRVLRHLAQP",
    "RESULT": "0.2 % of hG-CSF"
  }
]

Continue with the next binder.
input: State its EC50 (% of hG-CSF) conjugated to SPA-PEG 5000: G-CSF variant 34Q conjugated to SPA-PEG 5000 (ligand, SPA-PEG 5000 conjugated to the available PEGylation sites) TPLGPASSLPQSFLLKCLEQVRKIQGDGAALQEQLCATYKLCHPEELVLLGHSLGIPWAPLSSCPSQALQLAGCLSQLHSGLFLYQGLLQALEGISPELGPTLDTLQLDVADFATTIWQQMEELGMAPALQPTQGAMPAFASAFQRRAGGVLVASHLQSFLEVSYRVLRHLAQP
output: 1 % of hG-CSF
